- tgt: hA3AR (Homo sapiens (Human), UniProt P0DMS8)
- Sequence (P0DMS8 whole entry): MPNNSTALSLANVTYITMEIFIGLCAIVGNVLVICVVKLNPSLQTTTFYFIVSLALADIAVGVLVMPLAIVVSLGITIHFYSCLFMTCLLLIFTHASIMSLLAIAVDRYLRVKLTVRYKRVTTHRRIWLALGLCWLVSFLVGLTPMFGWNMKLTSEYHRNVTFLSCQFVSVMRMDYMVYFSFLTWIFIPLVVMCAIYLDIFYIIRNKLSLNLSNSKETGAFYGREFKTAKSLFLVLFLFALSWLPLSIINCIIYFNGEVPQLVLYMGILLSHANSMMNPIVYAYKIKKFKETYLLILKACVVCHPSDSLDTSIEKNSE
- test.description: Radioligand membrane binding at hA3AR (Example 6)
- study.conditions: CHO cells expressing hA3AR; [125I]I-AB-MECA; n = 3-5; read-out: Affinity Ki, nM A3
Exercise: state measured Ki for each of the molecules provided.
Express your answer in nM, writing the number without its unit.

QUERY: API: value(readout=Ki, system=hA3AR (Homo sapiens (Human), UniProt P0DMS8)) for record O[C@@H]1[C@H](O)[C@@H]2C[C@@H]2[C@H]1n1cnc2c(NC3CCC3)nc(Cl)nc21
RESULT: 5.9

QUERY: Same again, this time with O[C@@H]1[C@H](O)[C@@H]2C[C@@H]2[C@H]1n1cnc2c(N[C@@H](CC3CC3)C3CC3)nc(Cl)nc21
RESULT: 550

QUERY: And the next one, O[C@@H]1[C@H](O)[C@@H]2C[C@@H]2[C@H]1n1cnc2c(N[C@H](CC3CC3)C3CC3)nc(Cl)nc21 ?
RESULT: 1760

QUERY: Repeat with O[C@@H]1[C@H](O)[C@@H]2C[C@@H]2[C@H]1n1cnc2c(NC3CCCCCC3)nc(Cl)nc21
RESULT: 560

###

Would you kindly list Ki for each of these compounds?
- tgt: hA2AAR (Homo sapiens (Human), UniProt P29274)
- Sequence (P29274 whole entry): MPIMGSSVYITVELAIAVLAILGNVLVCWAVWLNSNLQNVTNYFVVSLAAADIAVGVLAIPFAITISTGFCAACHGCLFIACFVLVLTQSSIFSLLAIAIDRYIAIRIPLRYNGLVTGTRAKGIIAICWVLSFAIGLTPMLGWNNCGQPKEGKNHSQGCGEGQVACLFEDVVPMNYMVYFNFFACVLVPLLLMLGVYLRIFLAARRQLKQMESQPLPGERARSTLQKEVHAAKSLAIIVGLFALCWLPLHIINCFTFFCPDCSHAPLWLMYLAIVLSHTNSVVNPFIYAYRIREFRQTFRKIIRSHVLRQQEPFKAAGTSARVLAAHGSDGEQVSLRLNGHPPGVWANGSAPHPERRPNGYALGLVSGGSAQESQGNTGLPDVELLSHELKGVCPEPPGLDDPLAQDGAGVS
- test.description: Radioligand membrane binding at hA2AAR (Example 6)
- study.conditions: HEK293 cells expressing hA2AAR; [3H]CGS21680; n = 3-5; read-out: Affinity Ki, nM A2A
Value expressed in nM; do not type the unit.

QUERY: Which value of Ki has been reported for O[C@@H]1[C@H](O)[C@@H]2C[C@@H]2[C@H]1n1cnc2c(N[C@@H](CC3CC3)C3CC3)nc(Cl)nc21 in the records?
RESULT: 2550

QUERY: Again, but for CC(C)[C@H](Nc1nc(Cl)nc2c1ncn2[C@H]1[C@H](O)[C@H](O)[C@@H]2C[C@@H]21)C1CC1
RESULT: 3650

QUERY: Similarly, O[C@@H]1[C@H](O)[C@@H]2C[C@@H]2[C@H]1n1cnc2c(NC3CC3)nc(Cl)nc21 ?
RESULT: 3700

QUERY: Same lookup for CC(C)[C@@H](Nc1nc(Cl)nc2c1ncn2[C@H]1[C@H](O)[C@H](O)[C@@H]2C[C@@H]21)C1CC1 , please.
RESULT: 1570

QUERY: And for O[C@@H]1[C@H](O)[C@@H]2C[C@@H]2[C@H]1n1cnc2c(N[C@@H](C3CCC3)C3CC3)nc(Cl)nc21 ?
RESULT: 5470

QUERY: // next record CC[C@@H](Nc1nc(Cl)nc2c1ncn2[C@H]1[C@H](O)[C@H](O)[C@@H]2C[C@@H]21)C1CC1
RESULT: 3610

QUERY: What about O[C@@H]1[C@H](O)[C@@H]2C[C@@H]2[C@H]1n1cnc2c(NC(C3CC3)C3CC3)nc(Cl)nc21 ?
RESULT: 3950

QUERY: Similarly, O[C@@H]1[C@H](O)[C@@H]2C[C@@H]2[C@H]1n1cnc2c(NCC3CC3)nc(Cl)nc21 ?
RESULT: 4410

QUERY: Moving on to O[C@@H]1[C@H](O)[C@@H]2C[C@@H]2[C@H]1n1cnc2c(NC3CCC3)nc(Cl)nc21
RESULT: 3020

QUERY: // same read-out, input: O[C@@H]1[C@H](O)[C@@H]2C[C@@H]2[C@H]1n1cnc2c(N[C@H](C3CCC3)C3CC3)nc(Cl)nc21
RESULT: 6450

QUERY: What would you report for Nc1nc(Cl)nc2c1ncn2[C@H]1[C@H](O)[C@H](O)[C@@H]2C[C@@H]21 ?
RESULT: 3140

QUERY: Also O[C@@H]1[C@H](O)[C@@H]2C[C@@H]2[C@H]1n1cnc2c(NC3CCCCCC3)nc(Cl)nc21 , if possible.
RESULT: 3930

QUERY: Request: CC[C@H](Nc1nc(Cl)nc2c1ncn2[C@H]1[C@H](O)[C@H](O)[C@@H]2C[C@@H]21)C1CC1
RESULT: 4910

QUERY: Proceed to O[C@@H]1[C@H](O)[C@@H]2C[C@@H]2[C@H]1n1cnc2c(N[C@H](CC3CC3)C3CC3)nc(Cl)nc21
RESULT: 4840

QUERY: And then OCc1cc(F)c(F)cc1CNc1nc(Cl)nc2c1ncn2[C@@]12C[C@H](O)[C@H](O)[C@@H]1C2 , what is it?
RESULT: 7510

QUERY: Also CCC(CC)Nc1nc(Cl)nc2c1ncn2[C@H]1[C@H](O)[C@H](O)[C@@H]2C[C@@H]21 , if possible.
RESULT: 3700

QUERY: Input O[C@@H]1[C@H](O)[C@@H]2C[C@@H]2[C@H]1n1cnc2c(NC3CCCCC3)nc(Cl)nc21
RESULT: 2720
